Test system: 171881-019-R-J1-PDC tumor spheroid viability;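 note: spheroids exposed to compound for 7 days before viability read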
assay: Anticancer human tumor 171881-019-R-J1-PDC patient-derived invasive breast carcinoma cell line growth inhibition [PI3K]; active = viability on the fitted dose curve at most 10% of control; inactive = the rest
testConditions: second compound 1 µM; first compound 0.0316 µM; spheroids with HUVEC and MSC
Description: Combinatorial screen of targeted agents with the PI3K inhibitors inavolisib, alpelisib, duvelisib, and copanlisib in multi-cell type tumor spheroids A high-throughput screen of multi-cell type tumor spheroids was designed to identify active combinations of targeted small molecules and PI3K pathway inhibitors. […] Compounds. […] If the clinical Cmax for an agent had not been determined, the highest concentration tested was 10 microM. […]
Labels: True for active, False for inactive

compound	groupLabel
CC(Cn1ccc(-c2ccc(C#N)c(Cl)c2)n1)NC(=O)c1cc(C(C)O)[nH]n1 (stereo not given) + COc1c(OCCCN2CCOCC2)ccc2c3n(c(=NC(=O)c4cnc(N)nc4)nc12)CCN3	True
CC1(C)CCC(CN2CCN(c3ccc(C(=O)NS(=O)(=O)c4ccc(NCC5CCOCC5)c([N+](=O)[O-])c4)c(Oc4cnc5[nH]ccc5c4)c3)CC2)=C(c2ccc(Cl)cc2)C1 + COc1c(OCCCN2CCOCC2)ccc2c3n(c(=NC(=O)c4cnc(N)nc4)nc12)CCN3	True
Cn1ncc(Cl)c1-c1cc(C(=O)NC(CN)Cc2cccc(F)c2)sc1Cl (stereo not given) + COc1c(OCCCN2CCOCC2)ccc2c3n(c(=NC(=O)c4cnc(N)nc4)nc12)CCN3	True
C[C@@H](NC(=O)c1ncnc(N)c1Cl)c1ncc(C(=O)Nc2cc(C(F)(F)F)c(Cl)cn2)s1 + COc1c(OCCCN2CCOCC2)ccc2c3n(c(=NC(=O)c4cnc(N)nc4)nc12)CCN3	True
CC(=O)c1c(C)c2cnc(Nc3ccc(N4CCNCC4)cn3)nc2n(C2CCCC2)c1=O + CC(Nc1ccc2c(c1)OCCn1cc(N3C(=O)OCC3C(F)F)nc1-2)C(N)=O	False
